# assayed system: IDH2 R140Q (Homo sapiens, UniProt P48735, R140Q)
# Sequence (P48735 40-452 R140Q): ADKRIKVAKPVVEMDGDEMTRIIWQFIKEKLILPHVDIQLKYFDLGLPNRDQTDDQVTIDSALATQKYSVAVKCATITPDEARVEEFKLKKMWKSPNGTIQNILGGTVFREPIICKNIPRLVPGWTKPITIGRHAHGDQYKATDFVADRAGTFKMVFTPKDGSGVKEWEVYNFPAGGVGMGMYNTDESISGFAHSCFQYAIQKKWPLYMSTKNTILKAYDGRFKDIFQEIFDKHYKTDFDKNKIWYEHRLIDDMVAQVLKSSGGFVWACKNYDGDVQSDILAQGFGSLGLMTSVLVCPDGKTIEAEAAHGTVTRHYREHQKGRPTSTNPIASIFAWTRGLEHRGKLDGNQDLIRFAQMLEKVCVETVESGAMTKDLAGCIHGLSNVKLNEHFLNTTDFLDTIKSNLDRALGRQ
# measurement description: IDH2 R140Q enzymatic assay (NADPH cofactor depletion, diaphorase/resazurin readout)
# test conditions: IDH2 R140Q enzyme, 16 hours preincubation, class symbols; read-out: Enz R140Q
# Description: Compounds are assayed for IDH2 R172K inhibitory activity through a cofactor depletion assay. […] The reaction is terminated by the addition of a second enzyme, diaphorase, and a corresponding substrate, resazurin. […]
measured attribute: IC50

record_smiles=CC(C)Nc1cc(Nc2ccccc2)nc(-c2cccc(C(F)(F)F)n2)n1 assayed_system="IDH2 R140Q (Homo sapiens, UniProt P48735, R140Q)" measured_attribute=IC50 value_observed="< 50 nM"
record_smiles=Nc1cc(Nc2cc(C(F)(F)F)ccn2)nc(-c2cccc(C(F)(F)F)n2)n1 assayed_system="IDH2 R140Q (Homo sapiens, UniProt P48735, R140Q)" measured_attribute=IC50 value_observed="> 100 nM"
record_smiles=CC(C)Nc1cc(Nc2cc(C(F)(F)F)ncn2)nc(-c2cccc(C(F)(F)F)n2)n1 assayed_system="IDH2 R140Q (Homo sapiens, UniProt P48735, R140Q)" measured_attribute=IC50 value_observed="< 50 nM"
record_smiles=CC(C)(O)CNc1cc(Nc2cc(C(F)(F)F)ccn2)nc(-c2cccc(C(F)(F)F)n2)n1 assayed_system="IDH2 R140Q (Homo sapiens, UniProt P48735, R140Q)" measured_attribute=IC50 value_observed="< 50 nM"
record_smiles=CC(C)(C)Nc1cc(Nc2cc(C(F)(F)F)ncn2)nc(-c2cccc(C(F)(F)F)n2)n1 assayed_system="IDH2 R140Q (Homo sapiens, UniProt P48735, R140Q)" measured_attribute=IC50 value_observed="50 to 100 nM"
record_smiles=CC(C)Nc1cc(Nc2cc(C(F)(F)F)ccn2)nc(-c2cccc(C(F)(F)F)n2)n1 assayed_system="IDH2 R140Q (Homo sapiens, UniProt P48735, R140Q)" measured_attribute=IC50 value_observed="< 50 nM"
record_smiles=CC(C)Nc1cc(-c2ccccc2)nc(Nc2ccccc2)n1 assayed_system="IDH2 R140Q (Homo sapiens, UniProt P48735, R140Q)" measured_attribute=IC50 value_observed="50 to 100 nM"
record_smiles=CC(C)Nc1cc(Nc2cc(Cl)ccn2)nc(-c2cccc(C(F)(F)F)n2)n1 assayed_system="IDH2 R140Q (Homo sapiens, UniProt P48735, R140Q)" measured_attribute=IC50 value_observed="< 50 nM"
record_smiles=CC(C)(O)CNc1cc(Nc2ccccn2)nc(-c2cccc(C(F)(F)F)n2)n1 assayed_system="IDH2 R140Q (Homo sapiens, UniProt P48735, R140Q)" measured_attribute=IC50 value_observed="> 100 nM"
record_smiles=CC(C)CC(=O)Nc1cc(-c2ccccc2)nc(Nc2ccccc2)n1 assayed_system="IDH2 R140Q (Homo sapiens, UniProt P48735, R140Q)" measured_attribute=IC50 value_observed="> 100 nM"
record_smiles=CC(C)Nc1cc(Nc2cc(C(C)(F)F)ccn2)nc(-c2cccc(C(F)(F)F)n2)n1 assayed_system="IDH2 R140Q (Homo sapiens, UniProt P48735, R140Q)" measured_attribute=IC50 value_observed="< 50 nM"
record_smiles=CC(C)Nc1cc(Nc2ccccc2)nc(-c2ccccc2)n1 assayed_system="IDH2 R140Q (Homo sapiens, UniProt P48735, R140Q)" measured_attribute=IC50 value_observed="50 to 100 nM"
record_smiles=CC(C)Nc1cc(Nc2ccnc(C(F)(F)F)c2)nc(-c2cccc(C(F)(F)F)n2)n1 assayed_system="IDH2 R140Q (Homo sapiens, UniProt P48735, R140Q)" measured_attribute=IC50 value_observed="< 50 nM"
record_smiles=CC(C)Nc1cc(Nc2cc(C#N)ccn2)nc(-c2cccc(C(F)(F)F)n2)n1 assayed_system="IDH2 R140Q (Homo sapiens, UniProt P48735, R140Q)" measured_attribute=IC50 value_observed="< 50 nM"
record_smiles=CC(C)Nc1cc(Nc2cccc(Cl)n2)nc(-c2cccc(C(F)(F)F)n2)n1 assayed_system="IDH2 R140Q (Homo sapiens, UniProt P48735, R140Q)" measured_attribute=IC50 value_observed="< 50 nM"
record_smiles=COc1ccc(CNc2cc(Nc3cc(C(F)(F)F)ncn3)nc(-c3cccc(C(F)(F)F)n3)n2)cc1 assayed_system="IDH2 R140Q (Homo sapiens, UniProt P48735, R140Q)" measured_attribute=IC50 value_observed="< 50 nM"
record_smiles=CC(C)Nc1cc(Nc2cc(C3(C#N)CC3)ccn2)nc(-c2cccc(C(F)(F)F)n2)n1 assayed_system="IDH2 R140Q (Homo sapiens, UniProt P48735, R140Q)" measured_attribute=IC50 value_observed="< 50 nM"
record_smiles=Nc1cc(Nc2cc(C(F)(F)F)ncn2)nc(-c2cccc(C(F)(F)F)n2)n1 assayed_system="IDH2 R140Q (Homo sapiens, UniProt P48735, R140Q)" measured_attribute=IC50 value_observed="> 100 nM"
record_smiles=N#CC1(c2ccnc(Nc3cc(NCC4CC4)nc(-c4cccc(C(F)(F)F)n4)n3)c2)CC1 assayed_system="IDH2 R140Q (Homo sapiens, UniProt P48735, R140Q)" measured_attribute=IC50 value_observed="< 50 nM"
